# experimental-system: T1, human TREM2 (human, UniProt Q9NZC2 19-174, limits assumed)
# T1 sequence: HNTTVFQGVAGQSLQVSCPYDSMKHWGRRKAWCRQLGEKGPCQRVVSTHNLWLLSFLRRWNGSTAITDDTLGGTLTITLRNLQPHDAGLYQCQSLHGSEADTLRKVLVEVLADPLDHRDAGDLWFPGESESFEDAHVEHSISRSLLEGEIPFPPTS
# protocol-description: yeast-displayed Fab FACS, 1st screen 110 nM
readout-name: binding signal fold over 6E7 parental (fold)
Numbers only, in fold.

Answered examples (3):
INSERT INTO assay_data (binder, readout_name, readout_number) VALUES
  ('V56 (Fab, V domains shown) VH: EVQLVQSGAEVKKPGESLKISCKGSGYSFTSYWIAWVRQMPGKGLEWMGIIYPGDSDTRYQPSFQGQVTISADKSISTAYLQWSSLKASDTAMYFCARQRTFYYDSSDYFDYWGQGTLVTVSS VL: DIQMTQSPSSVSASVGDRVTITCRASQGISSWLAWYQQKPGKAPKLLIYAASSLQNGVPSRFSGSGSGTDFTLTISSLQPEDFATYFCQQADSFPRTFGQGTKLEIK', 'binding signal fold over 6E7 parental', 0.23),
  ('V33 (Fab, V domains shown) VH: EVQLVQSGAEVKKPGESLKISCKGSGYSFTSYWIAWVRQMPGKGLEWMGIIYPGDSDTRYSPSFQGQVTISADKSISTAYLQWSSLKASDTAMYFCARQRTFYGDSSDYFDYWGQGTLVTVSS VL: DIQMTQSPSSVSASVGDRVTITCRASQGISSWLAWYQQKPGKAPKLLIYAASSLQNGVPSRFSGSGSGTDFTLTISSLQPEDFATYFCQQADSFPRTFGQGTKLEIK', 'binding signal fold over 6E7 parental', 0.23),
  ('V68 (Fab, V domains shown) VH: EVQLVQSGAEVKKPGESLKISCKGSGYSFTSYWIAWVRQMPGKGLEWMGIIYPGDSDTRYSPSFQGQVTISADKSISTAYLQWSSLKASDTAMYFCARQRTFRYDSSDYFDYWGQGTLVTVSS VL: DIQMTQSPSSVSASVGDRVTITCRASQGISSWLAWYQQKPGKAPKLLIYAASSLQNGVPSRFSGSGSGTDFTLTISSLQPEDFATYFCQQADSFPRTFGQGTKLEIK', 'binding signal fold over 6E7 parental', 0.44);

Consider the record given below.
Request: Entry under review: V69 (Fab, V domains shown) VH: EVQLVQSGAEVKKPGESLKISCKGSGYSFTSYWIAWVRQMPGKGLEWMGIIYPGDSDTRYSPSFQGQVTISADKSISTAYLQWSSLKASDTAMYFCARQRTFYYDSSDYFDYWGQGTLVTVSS VL: DIQMTQSPSSVSASVGDRVTITCRASQGISSYLAWYQQKPGKAPKLLIYAASSLQNGVPSRFSGSGSGTDFTLTISSLQPEDFATYFCQQADSFPRTFGQGTKLEIK . Reported binding signal fold over 6E7 parental?
Response: 0.41
